Recorded TGI values for a group of molecules are listed next.
- Test system: UO-31 renal
- METHOD: NCI tumour cell line growth inhibition, 48 h

Would you please look over these solved cases?
{"MOLECULE": "COc1cc(C2CC(c3ccc4c(c3)OCO4)=NN2C=O)cc(OC)c1OC (stereo unspecified)", "TGI": "> 100 µM"}
{"MOLECULE": "O=C1C(Cl)=C(OCCCCl)C(=O)c2c(O)ccc(O)c21", "TGI": "12.1 µM"}
{"MOLECULE": "O=C(c1cccc2ccccc12)C1(Br)S(=O)(=O)OCCOS1(=O)=O", "TGI": "> 100 µM"}

For the next question, use this molecule.
Which TGI is listed for `C[C@]12CC[C@@H]3c4ccc(OP(=O)(O)O)cc4CC[C@H]3[C@@H]1CCC2=O` ?
> 100 µM
